# Target system: T1, human MSLN-FL-his protein (human, UniProt Q13421 296-580)
# T1 construct: made in HEK293E cells, purified on nickel column; also called hMSLN-FL-his; human MSLN full-length protein; not shown: His tag
# T1 sequence (Q13421 other isoform, or with tags, fused parts or gaps): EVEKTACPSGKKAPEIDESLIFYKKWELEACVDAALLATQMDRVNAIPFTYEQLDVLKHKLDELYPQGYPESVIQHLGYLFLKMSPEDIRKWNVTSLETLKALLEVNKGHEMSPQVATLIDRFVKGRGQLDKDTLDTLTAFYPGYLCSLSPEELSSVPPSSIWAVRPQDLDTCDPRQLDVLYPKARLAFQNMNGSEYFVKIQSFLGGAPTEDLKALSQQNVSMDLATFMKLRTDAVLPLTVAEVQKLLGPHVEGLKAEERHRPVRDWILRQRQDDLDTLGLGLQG
# Measurement notes: competitive ELISA; row F1.56.1; note: test concentration or dose not given here
Field: competition rate. Provide a value for each of the binders that follow.
Please respond with the number in % and leave the unit unwritten.

Ask | For the binder S009-F2.23.12 (antibody, human IgG1, kappa, V domains shown, human-murine chimeric antibody, human IgG1/kappa constant regions) VH: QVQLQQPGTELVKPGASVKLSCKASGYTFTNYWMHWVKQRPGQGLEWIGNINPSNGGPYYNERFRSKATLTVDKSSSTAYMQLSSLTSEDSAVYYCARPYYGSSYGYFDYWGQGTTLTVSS VL: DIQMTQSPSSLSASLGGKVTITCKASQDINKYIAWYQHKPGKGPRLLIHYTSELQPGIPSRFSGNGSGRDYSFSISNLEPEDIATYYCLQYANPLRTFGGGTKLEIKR , report competition rate.
Reply | 24

Ask | For the binder S009-F2.13.3 (antibody, human IgG1, kappa, V domains shown, human-murine chimeric antibody, human IgG1/kappa constant regions) VH: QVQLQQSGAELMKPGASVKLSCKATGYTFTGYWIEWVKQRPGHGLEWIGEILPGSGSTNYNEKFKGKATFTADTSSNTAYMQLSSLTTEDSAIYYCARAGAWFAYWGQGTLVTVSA VL: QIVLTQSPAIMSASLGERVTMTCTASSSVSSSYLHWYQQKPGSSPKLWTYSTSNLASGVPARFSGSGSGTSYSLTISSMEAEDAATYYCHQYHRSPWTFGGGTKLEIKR , report competition rate.
Reply | -426

Ask | For the binder S009-F2.47.1 (antibody, human IgG1, kappa, V domains shown, human-murine chimeric antibody, human IgG1/kappa constant regions) VH: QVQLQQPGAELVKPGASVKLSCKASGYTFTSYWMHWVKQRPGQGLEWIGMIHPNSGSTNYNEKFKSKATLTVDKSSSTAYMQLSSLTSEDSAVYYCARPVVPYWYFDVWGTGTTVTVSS VL: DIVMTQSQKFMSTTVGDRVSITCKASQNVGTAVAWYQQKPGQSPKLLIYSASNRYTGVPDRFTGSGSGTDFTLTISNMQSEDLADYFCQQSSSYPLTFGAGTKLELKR , report competition rate.
Reply | -324

Ask | For the binder S009-F2.58.8 (antibody, human IgG1, kappa, V domains shown, human-murine chimeric antibody, human IgG1/kappa constant regions) VH: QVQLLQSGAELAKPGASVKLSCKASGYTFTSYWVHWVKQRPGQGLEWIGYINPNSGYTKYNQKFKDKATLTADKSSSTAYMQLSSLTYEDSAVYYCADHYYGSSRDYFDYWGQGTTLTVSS VL: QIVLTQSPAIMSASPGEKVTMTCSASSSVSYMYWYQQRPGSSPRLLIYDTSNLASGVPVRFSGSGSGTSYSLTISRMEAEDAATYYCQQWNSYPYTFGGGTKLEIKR , report competition rate.
Reply | 104

Ask | For the binder S009-F1.2.12 (antibody, human IgG1, kappa, V domains shown, human-murine chimeric antibody, human IgG1/kappa constant regions) VH: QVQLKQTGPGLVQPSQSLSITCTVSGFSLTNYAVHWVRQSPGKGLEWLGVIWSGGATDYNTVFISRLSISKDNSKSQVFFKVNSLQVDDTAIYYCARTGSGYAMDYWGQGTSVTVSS VL: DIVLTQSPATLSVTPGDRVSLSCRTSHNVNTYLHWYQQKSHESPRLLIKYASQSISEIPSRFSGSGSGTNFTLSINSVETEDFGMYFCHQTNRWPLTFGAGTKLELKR , report competition rate.
Reply | 74
